- Tested on: SARS-CoV-2 replicon
- Type: cell-based
- reported conditions: read-out: SARS-CoV-2 Replicon (Huh-7cell) EC50
value kind: EC50

EC50 lookup needed for CCCCCCCCCCCCOC(=O)[C@H](C)N[P@](=O)(OC[C@H]1O[C@@](C#N)(c2ccc3c(N)ncnn23)[C@H](OC(=O)C(C)C)[C@@H]1OC(=O)C(C)C)Oc1ccccc1 [Compound 46b] , thanks.
0.05 to 0.5 µM

Also need CCC(CC)COC(=O)C[C@H](N[P@](=O)(OC[C@H]1O[C@@](C#N)(c2ccc3c(N)ncnn23)[C@H](OC(=O)C(C)C)[C@@H]1OC(=O)C(C)C)Oc1ccccc1)C(=O)OCC(CC)CC [Compound 62b] , thanks.
0.01 to 0.05 µM

Also need CCC(=O)O[C@H]1[C@@H](OC(=O)CC)[C@](C#N)(c2ccc3c(N)ncnn23)O[C@@H]1COP(=O)(OCOC(=O)OC(C)C)OCOC(=O)OC(C)C , thanks.
< 0.005 µM

Also need CCC(CC)COC(=O)[C@H](Cc1ccccc1)N[P@@](=O)(OC[C@H]1O[C@@](C#N)(c2ccc3c(N)ncnn23)[C@H](OC(=O)C(C)C)[C@@H]1OC(=O)C(C)C)Oc1ccccc1 [Compound 41a] , thanks.
0.05 to 0.5 µM

Also need CC(C)C(=O)O[C@H]1[C@@H](OC(=O)C(C)C)[C@](C#N)(c2ccc3c(N)ncnn23)O[C@@H]1COP(=O)(OCOC(=O)C(C)(C)C)OCOC(=O)C(C)(C)C , thanks.
0.01 to 0.05 µM
